Recorded EC50 by entry
target: human CYP11B1 (Homo sapiens (Human)); assay: G-402 cellular enzyme assay, human CYP11B1 (cortisol release, HTRF); settings: G-402 cells expressing human CYP11B1; 1 μM Deoxycortisol
Sequence (P15538 25-503): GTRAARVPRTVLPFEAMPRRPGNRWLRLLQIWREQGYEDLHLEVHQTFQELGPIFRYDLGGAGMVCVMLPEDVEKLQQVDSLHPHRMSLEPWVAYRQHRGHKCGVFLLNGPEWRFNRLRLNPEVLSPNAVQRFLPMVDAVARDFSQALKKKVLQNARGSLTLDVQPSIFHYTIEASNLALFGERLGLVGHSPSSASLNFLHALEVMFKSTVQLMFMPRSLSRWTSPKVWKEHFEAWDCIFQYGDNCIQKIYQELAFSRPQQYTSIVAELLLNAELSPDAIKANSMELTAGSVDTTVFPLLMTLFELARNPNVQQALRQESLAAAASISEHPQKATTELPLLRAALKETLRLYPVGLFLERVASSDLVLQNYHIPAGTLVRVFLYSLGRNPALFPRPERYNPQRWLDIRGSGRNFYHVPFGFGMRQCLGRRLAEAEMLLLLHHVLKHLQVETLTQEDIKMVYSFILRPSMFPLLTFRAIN
Result type: EC50 (nM)

1) CN1C(=O)CCc2cc(-c3cncc(COc4ccccn4)c3)ccc21 :: 8.7
2) CN1C(=O)CCc2cc(-c3cncc(COc4cccc(F)n4)c3)ccc21 :: 7.5
3) CN1C(=O)CCc2cc(-c3cncc(CSc4ncccc4C(F)(F)F)c3)ccc21 :: 14.3
4) CN1C(=O)CCc2cc(-c3cncc(COc4cccc(Cl)n4)c3)ccc21 :: 9.1

---

Recorded EC50 by entry
target: UniProt:P19099; test: G-402 cellular enzyme assay, human CYP11B2 (aldosterone release, HTRF); settings: G-402 cells expressing human CYP11B2; 1 μM Deoxycorticosterone
Sequence (P19099 25-503): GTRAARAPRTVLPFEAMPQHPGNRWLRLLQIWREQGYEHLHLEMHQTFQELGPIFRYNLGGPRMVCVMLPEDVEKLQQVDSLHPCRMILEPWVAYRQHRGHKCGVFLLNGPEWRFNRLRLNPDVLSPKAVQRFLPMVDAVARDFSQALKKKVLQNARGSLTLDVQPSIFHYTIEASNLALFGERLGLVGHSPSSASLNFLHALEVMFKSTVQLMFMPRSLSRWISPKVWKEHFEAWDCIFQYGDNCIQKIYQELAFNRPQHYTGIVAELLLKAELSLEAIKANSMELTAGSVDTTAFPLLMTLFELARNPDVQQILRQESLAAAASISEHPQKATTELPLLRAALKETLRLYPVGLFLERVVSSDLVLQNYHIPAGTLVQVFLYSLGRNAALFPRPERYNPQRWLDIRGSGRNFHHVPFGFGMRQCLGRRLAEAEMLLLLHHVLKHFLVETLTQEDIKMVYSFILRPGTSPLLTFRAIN
Result type: EC50 (nM)

1. CN1C(=O)CCc2cc(-c3cncc(CC(=O)Nc4cccc(Cl)n4)c3)ccc21 :: 6.8
2. Cc1ccnc(OCc2cncc(-c3ccc4c(c3)CCC(=O)N4C)c2)c1 :: 0.1
3. Cc1cccc(OCc2cncc(-c3ccc4c(c3)CCC(=O)N4C)c2)n1 :: 0.1
